All figures here come from patent US10710994B2.

- targetUnderTest: human TRPA1 channel (Homo sapiens (Human), UniProt O75762)
- Sequence (O75762 whole entry): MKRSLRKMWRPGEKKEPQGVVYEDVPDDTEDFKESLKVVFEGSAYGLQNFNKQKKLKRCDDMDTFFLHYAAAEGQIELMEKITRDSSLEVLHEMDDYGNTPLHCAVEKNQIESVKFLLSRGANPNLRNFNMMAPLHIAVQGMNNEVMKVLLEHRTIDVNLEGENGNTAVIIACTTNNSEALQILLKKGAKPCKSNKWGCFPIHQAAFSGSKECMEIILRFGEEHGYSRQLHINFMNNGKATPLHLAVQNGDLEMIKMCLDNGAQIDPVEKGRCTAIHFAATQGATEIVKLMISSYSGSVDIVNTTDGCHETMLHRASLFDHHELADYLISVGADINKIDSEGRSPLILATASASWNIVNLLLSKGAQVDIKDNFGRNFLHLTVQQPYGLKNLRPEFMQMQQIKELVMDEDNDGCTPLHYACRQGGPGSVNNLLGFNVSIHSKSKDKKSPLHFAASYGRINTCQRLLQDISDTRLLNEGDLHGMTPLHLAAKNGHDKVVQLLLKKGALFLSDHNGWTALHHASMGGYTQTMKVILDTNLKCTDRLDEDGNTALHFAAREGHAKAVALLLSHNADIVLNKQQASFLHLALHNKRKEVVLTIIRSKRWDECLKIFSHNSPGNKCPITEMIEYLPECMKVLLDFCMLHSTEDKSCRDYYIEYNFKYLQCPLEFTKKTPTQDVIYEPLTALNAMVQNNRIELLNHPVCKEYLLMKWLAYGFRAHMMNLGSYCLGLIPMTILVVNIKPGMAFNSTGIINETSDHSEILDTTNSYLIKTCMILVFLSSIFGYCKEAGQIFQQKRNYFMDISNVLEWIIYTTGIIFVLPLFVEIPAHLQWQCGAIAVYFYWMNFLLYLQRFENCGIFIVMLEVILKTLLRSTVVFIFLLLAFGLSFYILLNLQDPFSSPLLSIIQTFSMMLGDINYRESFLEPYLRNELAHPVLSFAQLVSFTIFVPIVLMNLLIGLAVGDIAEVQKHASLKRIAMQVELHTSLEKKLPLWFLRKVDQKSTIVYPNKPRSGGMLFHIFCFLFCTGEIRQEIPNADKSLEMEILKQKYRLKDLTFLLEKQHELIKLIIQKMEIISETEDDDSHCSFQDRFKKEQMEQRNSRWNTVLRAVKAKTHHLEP
- assayNotes: hTRPA1 CHO Ca2+ FLIPR Tetra assay: block of cinnamaldehyde induced calcium influx
- Format: cell-based
- measurementSetup: read-out: hTRPA1 IC50 10 min; CHO cells expressing TRPA1; 10 minutes incubation with compound before cinnamaldehyde (about EC80); Hill coefficient fixed to 1.5
// classify(record): look up IC50 in ranges bucket 1: < 8 nM; bucket 2: ≥ 8 nM and < 80 nM; bucket 3: ≥ 80 nM

> print(dat)
                                  chemsmiles                           targetundertest  classlabel
 1  Cc1ccnc2ncn(Cc3nc([C@@H]4CO[C@@H](c5ccc(F)cc5)C4)no3)c(=O)c12  human TRPA1 channel (Homo sapiens (Human), UniProt O75762)    bucket 1
 2  Nc1nc2ncccc2c(=O)n1Cc1nc([C@@H]2CO[C@@H](c3ccc(Cl)cc3)C2)no1  human TRPA1 channel (Homo sapiens (Human), UniProt O75762)    bucket 2
 3  Cn1c(N)nc2ncn(Cc3nc([C@@H]4CO[C@@H](c5ccc(F)cc5)C4)no3)c(=O)c21  human TRPA1 channel (Homo sapiens (Human), UniProt O75762)    bucket 3
 4  Cn1cnc2nc(N)n(Cc3nc([C@@H]4CO[C@@H](c5ccc(Cl)cc5)C4)no3)c(=O)c21  human TRPA1 channel (Homo sapiens (Human), UniProt O75762)    bucket 2
 5  Cn1cnc2ncn(Cc3nc([C@@H]4CO[C@@]5(Cc6ccccc65)C4)no3)c(=O)c21  human TRPA1 channel (Homo sapiens (Human), UniProt O75762)    bucket 3
 6  Nc1ccc2c(=O)n(Cc3nc([C@@H]4CO[C@@H](c5ccc(Cl)cc5)C4)no3)cnc2n1  human TRPA1 channel (Homo sapiens (Human), UniProt O75762)    bucket 1
 7  Cn1cnc2ncn(Cc3nc([C@@H]4CO[C@@H](c5ccc6ncsc6c5)C4)no3)c(=O)c21  human TRPA1 channel (Homo sapiens (Human), UniProt O75762)    bucket 3
 8  Cc1cnn2ncn(Cc3nc([C@@H]4CO[C@@H](c5ccc(Cl)cn5)C4)no3)c(=O)c12  human TRPA1 channel (Homo sapiens (Human), UniProt O75762)    bucket 2
 9  Cc1ccnc2nc(N)n(Cc3nc([C@@H]4CO[C@@H](c5ccc(F)cc5)C4)no3)c(=O)c12  human TRPA1 channel (Homo sapiens (Human), UniProt O75762)    bucket 2
10  Cn1nnc2ncn(Cc3nc([C@@H]4CO[C@@H](c5ccc(Cl)cc5)C4)no3)c(=O)c21  human TRPA1 channel (Homo sapiens (Human), UniProt O75762)    bucket 1
11  Nc1nn2ncc(Cl)c2c(=O)n1Cc1nc([C@@H]2CO[C@@H](c3ccc(F)cc3)C2)no1  human TRPA1 channel (Homo sapiens (Human), UniProt O75762)    bucket 2
12  Cc1nc2nc(C)n(C)c2c(=O)n1Cc1nc([C@@H]2CO[C@@H](c3ccc(Cl)cc3)C2)no1  human TRPA1 channel (Homo sapiens (Human), UniProt O75762)    bucket 3
13  Cn1cnc2ncn(Cc3nc([C@@H]4CO[C@@H](c5ccc(C#N)cc5)C4)no3)c(=O)c21  human TRPA1 channel (Homo sapiens (Human), UniProt O75762)    bucket 3
14  Cc1ncn2nc(N)n(Cc3nc([C@@H]4CO[C@@H](c5ccc(F)cc5)C4)no3)c(=O)c12  human TRPA1 channel (Homo sapiens (Human), UniProt O75762)    bucket 2
15  Cn1cnc2ncn(Cc3nc([C@@H]4CO[C@@H](c5ccc(C6CC6)cc5)C4)no3)c(=O)c21  human TRPA1 channel (Homo sapiens (Human), UniProt O75762)    bucket 2
16  Cc1ccnc2nc(N)n(Cc3nc([C@@H]4CO[C@@H](c5ccc(Cl)cc5)C4)no3)c(=O)c12  human TRPA1 channel (Homo sapiens (Human), UniProt O75762)    bucket 2
17  Cn1cnc2ccn(Cc3nc([C@@H]4CO[C@@H](c5ccc(F)cc5)C4)no3)c(=O)c21  human TRPA1 channel (Homo sapiens (Human), UniProt O75762)    bucket 1
18  O=c1c2cccnc2ncn1Cc1nc([C@@H]2CO[C@@H](c3ccc(Cl)cc3)C2)no1  human TRPA1 channel (Homo sapiens (Human), UniProt O75762)    bucket 1
19  Cc1cnn2ncn(Cc3nc([C@@H]4CO[C@@H](c5ccc(Cl)cc5)C4)no3)c(=O)c12  human TRPA1 channel (Homo sapiens (Human), UniProt O75762)    bucket 1
20  Cn1cnc2ncn(Cc3nc([C@@H]4CO[C@@H](c5ccccc5F)C4)no3)c(=O)c21  human TRPA1 channel (Homo sapiens (Human), UniProt O75762)    bucket 3

====

Reported IC50 values follow for various compounds
- targetUnderTest: human TRPA1 channel (Homo sapiens (Human))
- assayNotes: hTRPA1 CHO Ca2+ FLIPR Tetra assay: block of cinnamaldehyde induced calcium influx
- Assay type: cell-based
- measurementSetup: read-out: hTRPA1 IC50 10 min; CHO cells expressing TRPA1; 10 minutes incubation with compound before cinnamaldehyde (about EC80); Hill coefficient fixed to 1.5
quantityKind: IC50 (nM)

> print(dat)
                                    compound  quantitykind  reportedresult
 1  Cn1nnc2ncn(Cc3nc([C@@H]4CO[C@@H](c5ccc(F)cc5)C4)no3)c(=O)c21          IC50            7.55
 2  Cc1ncn2nc(N)n(Cc3nc([C@@H]4CO[C@@H](c5ccc(Cl)cc5)C4)no3)c(=O)c12          IC50             142
 3  Cn1cnc2nc(N)n(Cc3nc([C@@H]4CO[C@@H](c5ccc(F)cc5)C4)no3)c(=O)c21          IC50            56.9
 4  Nc1nc2nccnc2n1Cc1nc([C@@H]2CO[C@@H](c3ccc(Cl)cc3)C2)no1          IC50            10.8
 5  Cn1cnc2nnn(Cc3nc([C@@H]4CO[C@@H](c5ccc(Cl)cc5)C4)no3)c(=O)c21          IC50            30.9
 6  Cc1c(=O)ncn2cnn(Cc3nc([C@@H]4CO[C@@H](c5ccc(Cl)cc5)C4)no3)c(=O)c12          IC50             332
 7  N#Cc1cnn2ncn(Cc3nc([C@@H]4CO[C@@H](c5ccc(Cl)cc5)C4)no3)c(=O)c12          IC50            94.9
 8  Cc1ccnc2c1c(=O)nc(N)n2Cc1nc([C@@H]2CO[C@@H](c3ccc(Cl)cc3)C2)no1          IC50              20
 9  Cc1cnn2nc(N)n(Cc3nc([C@@H]4CO[C@@H](c5ccc(F)cc5)C4)no3)c(=O)c12          IC50            5.02
10  O=c1ccc2c(=O)n(Cc3nc([C@@H]4CO[C@@H](c5ccc(Cl)cc5)C4)no3)cnc2[nH]1          IC50            12.7
11  Cn1cnc2ncn(Cc3nc([C@@H]4CO[C@@H](c5ccc(F)c(F)c5)C4)no3)c(=O)c21          IC50             173
12  Cc1cnn2nc(N)n(Cc3nc([C@@H]4CO[C@@H](c5cccc(F)c5)C4)no3)c(=O)c12          IC50            17.9
13  Cn1cnc2[nH]c(=O)n(Cc3nc([C@@H]4CO[C@@H](c5ccc(Cl)cc5)C4)no3)c(=O)c21          IC50             313
14  Cn1ncc2ncn(Cc3nc([C@@H]4CO[C@@H](c5ccc(Cl)cc5)C4)no3)c(=O)c21          IC50              47
15  Cc1ncn2ncn(Cc3nc([C@@H]4CO[C@@H](c5ccc(Cl)cc5)C4)no3)c(=O)c12          IC50            20.6
16  Cc1c(N)nn2ncn(Cc3nc([C@@H]4CO[C@@H](c5ccc(F)cc5)C4)no3)c(=O)c12          IC50            9.28
17  Cn1cnc2nc(N)n(Cc3nc([C@@H]4CO[C@@H](c5ccc(S(F)(F)(F)(F)F)cc5)C4)no3)c(=O)c21          IC50             170
18  Cn1cnc2ncn(Cc3nc([C@@H]4CO[C@@H](c5ccc(Cl)c(Cl)c5)C4)no3)c(=O)c21          IC50            19.7
19  Cc1ccnc2ncn(Cc3nc([C@@H]4CO[C@@H](c5ccc(Cl)cc5)C4)no3)c(=O)c12 [Example 58]          IC50              69
20  Cn1cnc2nc(Cl)n(Cc3nc([C@@H]4CO[C@@H](c5ccc(Cl)cc5)C4)no3)c(=O)c21          IC50            29.4
21  Cc1n[nH]c2ncn(Cc3nc([C@@H]4CO[C@@H](c5ccc(Cl)cc5)C4)no3)c(=O)c12          IC50            11.3
22  CN1CCc2c(ncn(Cc3nc([C@@H]4CO[C@@H](c5ccc(Cl)cc5)C4)no3)c2=O)C1          IC50            2720
23  Cc1cnn2ncn(Cc3nc([C@@H]4CO[C@@H](c5ccc6cnn(C)c6c5)C4)no3)c(=O)c12          IC50            8.26
24  Cn1cnc2ncn(Cc3nc([C@@H]4CO[C@@H](c5ccc(Cl)cc5)C4)no3)c2c1=O          IC50              19
